Hey, just so you know, these numbers are from ChEMBL document CHEMBL1201862.

# System: COLO 205
# Assay Procedure: NCI tumour cell line growth inhibition, 48 h
Calls of active or inactive are those of the source. Rule as the data show it: active = GI50 up to about 1.1 µM and inactive = higher.
For each entry below, report its GI50 value.

Request the reported GI50 associated with Clc1cc(Cl)cc(/N=C/C=C/Nc2cc(Cl)cc(Cl)c2)c1
16.5 µM (inactive)

Request the reported GI50 associated with C[N+]1(CC[N+]2(C)CCCC2c2cccnc2)CCCC1c1cccnc1 (stereo unspecified)
86.1 µM (inactive)

Request the reported GI50 associated with CCN(CC)C(=O)CCNC(C)Cc1c[nH]c2ccccc12 (stereo unspecified)
> 100 µM (inactive)

Request the reported GI50 associated with O=C1CC2C=CC(O)C(C1)C2 (stereo unspecified)
> 100 µM (inactive)

Request the reported GI50 associated with O=C(Nc1cccs1)c1c(O)[nH]c(=S)[nH]c1=O
> 100 µM (inactive)

Request the reported GI50 associated with CCOn1cc(C[C@@]2(O)C(=O)OC3[C@@H](O)CO[C@@]32O)c2ccccc21 (stereo partly specified)
> 100 µM (inactive)
